# target-or-system: C-C chemokine receptor type 5 (Homo sapiens, UniProt P51681)
# assay-info: Binding affinity against C-C chemokine receptor type 5 stably expressed in Chinese hamster ovary (CHO) cells using [125I]-MIP-1 alpha as the radioligand
# Sequence (P51681 whole entry): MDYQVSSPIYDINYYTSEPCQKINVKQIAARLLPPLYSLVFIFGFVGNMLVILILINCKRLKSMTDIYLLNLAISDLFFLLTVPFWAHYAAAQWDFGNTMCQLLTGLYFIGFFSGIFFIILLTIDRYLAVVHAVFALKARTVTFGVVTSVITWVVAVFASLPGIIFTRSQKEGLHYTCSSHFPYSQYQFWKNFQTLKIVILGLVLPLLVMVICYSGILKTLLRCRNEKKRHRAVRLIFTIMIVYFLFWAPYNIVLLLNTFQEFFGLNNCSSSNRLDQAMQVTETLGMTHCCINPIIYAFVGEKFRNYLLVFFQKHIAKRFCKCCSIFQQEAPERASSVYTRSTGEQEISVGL
pIC50: −log10 of the molar value.

{"columns": ["compound", "pIC50"],
 "data": [
  ["C=CCN(C(=O)OCc1ccccc1)C1CCN(CCC(CN2C(=O)N[C@H](Cc3c[nH]c4ccccc34)C2=O)c2cccc(Cl)c2)CC1 (stereo partly drawn)", 8.52],
  ["CCN(C(=O)OCc1ccccc1)C1CCN(CCC(CN2C(=O)N[C@H](Cc3c[nH]c4ccccc34)C2=O)c2cccc(Cl)c2)CC1 (stereo partly drawn)", 8.70],
  ["O=C1CC2(CCN(CCC(CN3C(=O)N[C@H](Cc4ccccc4)C3=O)c3cccc(Cl)c3)CC2)c2ccccc21 (stereo partly drawn)", 6.70]
]}

====

compounds and their reported IC50
# target-or-system: C-C chemokine receptor type 5 (Homo sapiens)
# assay-info: Binding affinity against C-C chemokine receptor type 5 stably expressed in Chinese hamster ovary (CHO) cells using [125I]-MIP-1 alpha as the radioligand

{"columns": ["compound", "target-or-system", "IC50"],
 "data": [
  ["CC(CCN1CCC(c2ccccc2)CC1)(CN1C(=O)N[C@H](Cc2c[nH]c3ccccc23)C1=O)c1cccc(Cl)c1 (some centres undefined)", "C-C chemokine receptor type 5 (Homo sapiens)", "100 nM"],
  ["O=C1N[C@H](Cc2c[nH]c3ccccc23)C(=O)N1CC(CCN1CCC(c2ccccc2)CC1)c1cccc(Cl)c1 (stereo in doubt)", "C-C chemokine receptor type 5 (Homo sapiens)", "25 nM"],
  ["C=CCN(C(=O)OCc1ccccc1)C1CCN(CCC(CN2C(=O)N[C@H](Cc3c[nH]c4ccccc34)C2=O)c2ccccc2)CC1 (some centres undefined)", "C-C chemokine receptor type 5 (Homo sapiens)", "7 nM"],
  ["CCN(C(=O)OCc1ccccc1)C1CCN(CCC(CN2C(=O)N[C@H](Cc3c[nH]c4ccccc34)C2=O)c2ccccc2)CC1 (some centres undefined)", "C-C chemokine receptor type 5 (Homo sapiens)", "13 nM"]
]}

====

# target-or-system: UniProtKB P51679
# Sequence (P51679 whole entry): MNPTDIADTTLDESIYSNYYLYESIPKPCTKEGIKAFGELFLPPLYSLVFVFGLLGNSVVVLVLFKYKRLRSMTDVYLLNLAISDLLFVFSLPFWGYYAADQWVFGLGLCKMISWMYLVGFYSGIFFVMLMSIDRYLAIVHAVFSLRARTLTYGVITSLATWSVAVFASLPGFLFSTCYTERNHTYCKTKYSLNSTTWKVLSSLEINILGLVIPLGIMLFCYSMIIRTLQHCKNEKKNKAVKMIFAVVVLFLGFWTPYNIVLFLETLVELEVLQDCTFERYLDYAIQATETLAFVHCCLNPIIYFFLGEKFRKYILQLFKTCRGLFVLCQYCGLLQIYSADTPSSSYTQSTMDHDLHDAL

{"columns": ["compound", "target-or-system", "IC50"],
 "data": [
  ["CCN(C(=O)OCc1ccccc1)C1CCN(CCC(CN2C(=O)N[C@H](Cc3c[nH]c4ccccc34)C2=O)c2ccccc2)CC1 (stereo partly specified)", "UniProtKB P51679", "> 1000 nM"]
]}

====

compounds and their reported inhibition
# target-or-system: C-C chemokine receptor type 5 (Homo sapiens, UniProt P51681)
# assay-info: Percent inhibition of the [125I]-MIP-1 alpha binding towards C-C chemokine receptor type 5 stably expressed in Chinese hamster ovary (CHO) cells at a concentration of 1 uM
# Type: cell-based
# Sequence (P51681 whole entry, looked up): as the sequence (P51681 whole entry) above

{"columns": ["compound", "target-or-system", "inhibition [%]"],
 "data": [
  ["O=C1[C@@H](Cc2ccccc2)N(Cc2ccccc2)C(=O)N1CC(CCN1CCC(c2ccccc2)CC1)c1cccc(Cl)c1 (stereo partly specified)", "C-C chemokine receptor type 5 (Homo sapiens, UniProt P51681)", 40],
  ["O=C1N[C@H](Cc2c[nH]cn2)C(=O)N1CC(CCN1CCC(c2ccccc2)CC1)c1ccccc1 (stereo partly specified)", "C-C chemokine receptor type 5 (Homo sapiens, UniProt P51681)", 25],
  ["CS(=O)(=O)N1CC2(CCN(CCC(CN3C(=O)N[C@H](Cc4ccccc4)C3=O)c3cccc(Cl)c3)CC2)c2ccccc21 (stereo partly specified)", "C-C chemokine receptor type 5 (Homo sapiens, UniProt P51681)", 55],
  ["Cn1cc(C[C@H]2NC(=O)N(CC(CCN3CCC(c4ccccc4)CC3)c3cccc(Cl)c3)C2=O)c2ccccc21 (stereo partly specified)", "C-C chemokine receptor type 5 (Homo sapiens, UniProt P51681)", 43],
  ["O=C1N[C@H](Cc2c[nH]c3ccccc23)C(=O)N1CC(CCN1CCC(c2ccccc2)CC1)c1ccccc1 (stereo in doubt; 22)", "C-C chemokine receptor type 5 (Homo sapiens, UniProt P51681)", 71],
  ["O=C1N[C@H](Cc2csc3ccccc23)C(=O)N1CC(CCN1CCC(c2ccccc2)CC1)c1cccc(Cl)c1 (stereo partly specified)", "C-C chemokine receptor type 5 (Homo sapiens, UniProt P51681)", 67]
]}

====

# target-or-system: C-C chemokine receptor type 5 (Homo sapiens, UniProt P51681)
# assay-info: Binding affinity against C-C chemokine receptor type 5 stably expressed in Chinese hamster ovary (CHO) cells using [125I]-MIP-1 alpha as the radioligand
Entries whose IC50 is below 0.08 µM take Yes; entries at or above 0.08 µM take No.

{"columns": ["molecule", "discrete-label"],
 "data": [
  ["C=CCN(C(=O)OCc1ccccc1)C1CCN(CCC(C)(CN2C(=O)N[C@H](Cc3c[nH]c4ccccc34)C2=O)c2ccccc2)CC1 (some centres not stated)", "Yes"],
  ["CCN(C(=O)OCc1ccccc1)C1CCN(CCC(C)(CN2C(=O)N[C@H](Cc3c[nH]c4ccccc34)C2=O)c2cccc(Cl)c2)CC1 (some centres not stated)", "Yes"],
  ["O=C1N[C@H](Cc2ccccc2)C(=O)N1CC(CCN1CCC(c2ccccc2)CC1)c1cccc(Cl)c1 (some centres not stated)", "No"],
  ["C=CCN(C(=O)OCc1ccccc1)C1CCN(CCC(C)(CN2C(=O)N[C@H](Cc3c[nH]c4ccccc34)C2=O)c2cccc(Cl)c2)CC1 (some centres not stated)", "Yes"],
  ["O=C1CC2(CCN(CCC(CN3C(=O)N[C@H](c4ccccc4)C3=O)c3cccc(Cl)c3)CC2)c2ccccc21 (some centres not stated)", "No"],
  ["CCN(C(=O)OCc1ccccc1)C1CCN(CCC(C)(CN2C(=O)N[C@H](Cc3c[nH]c4ccccc34)C2=O)c2ccccc2)CC1 (some centres not stated)", "Yes"]
]}

====

# target-or-system: C-C chemokine receptor type 5 (Homo sapiens, UniProt P51681)
# assay-info: Percent inhibition of the [125I]-MIP-1 alpha binding towards C-C chemokine receptor type 5 stably expressed in Chinese hamster ovary (CHO) cells at a concentration of 1 uM
# Assay type: cell-based
compounds and their reported inhibition

{"columns": ["compound", "units-label", "inhibition"],
 "data": [
  ["O=C1CC2(CCN(CCC(CN3C(=O)N[C@@H](c4ccccc4)C3=O)c3cccc(Cl)c3)CC2)c2ccccc21 (some centres undefined)", "%", 52],
  ["CN1C(=O)N(CC(CCN2CCC(c3ccccc3)CC2)c2cccc(Cl)c2)C(=O)[C@H]1Cc1ccccc1 (some centres undefined)", "%", 52],
  ["O=C1N[C@H](Cc2c[nH]c3ccccc23)C(=O)N1CC(CCN1CCC(c2ccccc2)CC1)c1ccccc1 (stereo in doubt; 24)", "%", 71],
  ["CC(CCN1CCC(c2ccccc2)CC1)(CN1C(=O)N[C@H](Cc2c[nH]c3ccccc23)C1=O)c1ccccc1 (some centres undefined)", "%", 80]
]}

====

The next entries give measured pIC50 for C-C chemokine receptor type 2 (Homo sapiens, UniProt P41597).
pIC50: −log10 of the molar value.
assay-metric: pIC50

{"columns": ["molecule", "value-observed"],
 "data": [
  ["C=CCN(C(=O)OCc1ccccc1)C1CCN(CCC(CN2C(=O)N[C@H](Cc3c[nH]c4ccccc34)C2=O)c2ccccc2)CC1 (stereo partly drawn)", "< 6.00"],
  ["C=CCN(C(=O)OCc1ccccc1)C1CCN(CCC(C)(CN2C(=O)N[C@H](Cc3c[nH]c4ccccc34)C2=O)c2cccc(Cl)c2)CC1 (stereo partly drawn)", "< 6.00"],
  ["CCN(C(=O)OCc1ccccc1)C1CCN(CCC(CN2C(=O)N[C@H](Cc3c[nH]c4ccccc34)C2=O)c2ccccc2)CC1 (stereo partly drawn)", "< 6.00"]
]}

====

# target-or-system: C-X-C chemokine receptor type 4 (Homo sapiens, UniProt P61073)
# Sequence (P61073 whole entry): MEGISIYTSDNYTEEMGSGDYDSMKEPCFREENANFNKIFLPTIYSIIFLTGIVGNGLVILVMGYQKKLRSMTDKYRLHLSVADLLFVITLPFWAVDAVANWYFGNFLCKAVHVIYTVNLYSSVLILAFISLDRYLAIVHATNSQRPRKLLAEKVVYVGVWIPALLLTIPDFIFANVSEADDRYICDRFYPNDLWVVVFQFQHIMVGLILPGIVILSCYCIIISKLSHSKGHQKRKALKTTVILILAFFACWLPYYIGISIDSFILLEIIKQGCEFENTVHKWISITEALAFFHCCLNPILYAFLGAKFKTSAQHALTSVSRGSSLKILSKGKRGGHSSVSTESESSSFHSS
pIC50: −log10 of the molar value.

{"columns": ["compound", "target-or-system", "pIC50"],
 "data": [
  ["C=CCN(C(=O)OCc1ccccc1)C1CCN(CCC(C)(CN2C(=O)N[C@H](Cc3c[nH]c4ccccc34)C2=O)c2ccccc2)CC1 (some centres not stated)", "C-X-C chemokine receptor type 4 (Homo sapiens, UniProt P61073)", "< 6.00"],
  ["C=CCN(C(=O)OCc1ccccc1)C1CCN(CCC(C)(CN2C(=O)N[C@H](Cc3c[nH]c4ccccc34)C2=O)c2cccc(Cl)c2)CC1 (some centres not stated)", "C-X-C chemokine receptor type 4 (Homo sapiens, UniProt P61073)", "< 6.00"]
]}
